Entries and their level at 5 min values follow.
Experiment: in vivo
Conditions: C57BL/6, mouse, iv
Where no end group is shown, it is not given here.
propertyLabel: level at 5 min (ng/mL)

substance	propertyLabel	unitName	experimentalResult
Ac-PMKFDVWDLYFEIVW-NH2 [Peptide A02]	level at 5 min	ng/mL	11600
Ac-WDLYFEIVW-NH2 [Peptide A05]	level at 5 min	ng/mL	2600
Ac-RMKFDVWDLYFEIVW-NH2 [Peptide A01]	level at 5 min	ng/mL	673
H-ERMEFDVWDLYFEIVW-NH2 [Peptide A09]	level at 5 min	ng/mL	350
Ac-WDLYFEIVWE [Peptide A06]	level at 5 min	ng/mL	50000
